Below: a set of entries, each annotated with reported viability, T/C.
system: KRAS PDC multicell spheroid viability; assay: Anticancer human tumor 825966-067-R-J1-PDC patient-derived colon carcinoma cell line growth inhibition [KRAS2]; conditions: second compound 0.316 µM; first compound 0.01 µM; active compounds read low;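 note: spheroids exposed to compounds for 7 days; 100% = DMSO vehicle control viability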
PROPERTY_NAME: viability, T/C (%)

• CC(=O)OC12COC1CC(O)C1(C)C(=O)C(O)C3=C(C)C(OC(=O)C(O)C(NC(=O)OC(C)(C)C)c4ccccc4)CC(O)(C(OC(=O)c4ccccc4)C21)C3(C)C (stereo not drawn) + C=CC(=O)N1CCN(c2nc(=O)n(-c3c(C)ccnc3C(C)C)c3nc(-c4c(O)cccc4F)c(F)cc23)C(C)C1 = 26.8
• CCN1CCN(Cc2ccc(Nc3ncc(F)c(-c4cc(F)c5nc(C)n(C(C)C)c5c4)n3)nc2)CC1 + COc1cc2nc(C)nc(NC(C)c3cc(N)cc(C(F)(F)F)c3)c2cc1OC1CCOC1 = 109
• CC(=O)OC12COC1CC(O)C1(C)C(=O)C(O)C3=C(C)C(OC(=O)C(O)C(NC(=O)OC(C)(C)C)c4ccccc4)CC(O)(C(OC(=O)c4ccccc4)C21)C3(C)C (stereo not drawn) + CC1OCC2(CCN(c3cnc(Sc4ccnc(N)c4Cl)c(N)n3)CC2)C1N = 13.1
